Experiment: Half life in mouse microsomes at 0.8 uM
Assay type: ADME, Microsome
reported endpoint: half-life at 0.8 µM (min)
Give bare numbers, in min.

Check out these entries, answers already filled in.
Cc1cccc(C(=O)N[C@@H]2C(=O)Nc3c(c(C)nn3C3CCCC3)[C@@H]2c2ccc(F)cc2)c1 (racemic) | 30
Cc1cccc(C(=O)N[C@@H]2C(=O)Nc3c(c(C)nn3-c3ccccc3)[C@@H]2c2ccc(F)cc2)c1 (racemic) | 66
CCn1nc(C)c2c1NC(=O)[C@@H](NC(=O)c1cccc(C)c1)[C@H]2c1ccc(F)cc1 (racemic) | 36

Now turn to the next compound.
Request: // query half-life at 0.8 µM value for entry Cc1ccc([C@H]2c3c(C)nn(-c4ccccc4)c3NC(=O)[C@H]2NC(=O)c2cccc(C)c2)cc1 (relative stereo)
Result: 18

###

Target: DCN1-like protein 1/NEDD8-conjugating enzyme Ubc12 (Homo sapiens, UniProt Q96GG9)
Sequence (Q96GG9 whole entry): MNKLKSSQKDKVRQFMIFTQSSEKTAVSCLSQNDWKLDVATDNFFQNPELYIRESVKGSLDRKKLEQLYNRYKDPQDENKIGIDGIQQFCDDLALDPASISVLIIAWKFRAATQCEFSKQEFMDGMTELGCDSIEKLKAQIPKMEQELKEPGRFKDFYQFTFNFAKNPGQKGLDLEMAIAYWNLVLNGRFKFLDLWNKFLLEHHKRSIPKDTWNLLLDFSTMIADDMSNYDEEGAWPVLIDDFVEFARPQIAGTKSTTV
Sequence (P61081 whole entry, further chain): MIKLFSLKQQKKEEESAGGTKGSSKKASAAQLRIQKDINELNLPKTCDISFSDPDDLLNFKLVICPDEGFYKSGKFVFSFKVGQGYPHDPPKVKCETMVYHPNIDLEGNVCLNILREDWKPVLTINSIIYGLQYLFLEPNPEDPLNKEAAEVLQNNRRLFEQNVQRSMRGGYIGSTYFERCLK
Test: Inhibition of biotinylated DCN1 (unknown origin) - AlexaFluor488 labelled UBE2M (unknown origin) protein-protein interaction after 1 hr by TR-FRET assay
Label True when IC50 is strictly below 4 µM; otherwise label False.

Cc1cccc(C(=O)N[C@@H]2C(=O)Nc3c(c(C)nn3Cc3ccccc3)[C@@H]2c2ccc(F)cc2)c1 | False
Cc1nn(-c2ccccc2)c2c1[C@H](c1ccc(F)cc1)[C@H](NC(=O)c1ccccc1)C(=O)N2 | False

Request: Lab log: compare recorded IC50 with 4 µM; is it strictly lower for Cc1cccc(C(=O)N[C@@H]2C(=O)Nc3c(c(C)nn3-c3ccccn3)[C@@H]2c2ccc(F)cc2)c1 ?
Result: False

Request: Record: Cc1cccc(C(=O)N[C@@H]2C(=O)Nc3c(c(C)nn3-c3ccccc3)[C@@H]2C2CCCCC2)c1
Result: True

Request: Record: Cc1cccc(C(=O)N[C@@H]2C(=O)Nc3c(c(C)nn3-c3ccccc3)[C@@H]2c2ccc(F)cc2)c1 (racemic)
Result: True

Request: Record: CCC(C)n1nc(C)c2c1NC(=O)[C@@H](NC(=O)c1cccc(C)c1)[C@H]2c1ccc(F)cc1 (stereo in doubt; 22a)
Result: True

Request: Record: CC(=O)CN1C(=O)[C@@H](NC(=O)c2cccc(C)c2)[C@@H](c2ccc(F)cc2)c2c(C)nn(-c3ccccc3)c21
Result: False

Request: Record: Cc1cccc(C(=O)N[C@@H]2C(=O)Nc3c(c(C)nn3-c3ccccc3)[C@@H]2Cc2ccccc2)c1
Result: True

Request: Record: Cc1nn(-c2ccccc2)c2c1[C@H](c1ccc(F)cc1)[C@H](NC(=O)c1cccc(I)c1)C(=O)N2
Result: False

Request: Record: Cc1cncc(C(=O)N[C@@H]2C(=O)Nc3c(c(C)nn3-c3ccccc3)[C@@H]2c2ccc(F)cc2)c1
Result: False

Request: Record: Cc1cccc(C(=O)N[C@@H]2C(=O)Nc3c(c(C)nn3-c3ccccc3)[C@@H]2c2cccnc2)c1
Result: False

Request: Record: Cc1cccc(C(=O)N[C@@H]2C(=O)Nc3c(c(C)nn3C3CCCC3)[C@@H]2c2ccc(F)cc2)c1 (racemic)
Result: True

Request: Record: CCN1C(=O)[C@@H](NC(=O)c2cccc(C)c2)[C@@H](c2ccc(F)cc2)c2c(C)nn(C3CC3)c21 (racemic)
Result: True

Request: Record: Cc1cccc(C(=O)N[C@@H]2C(=O)Nc3c(c(C)nn3C(C)(C)C)[C@@H]2c2ccc(F)cc2)c1
Result: True
